- test_system: T1, huCLL1-K244-Avi-Tev-His (human, UniProt Q5QGZ9 65-265)
- T1 construct: extracellular domain
- T1 sequence (looked up): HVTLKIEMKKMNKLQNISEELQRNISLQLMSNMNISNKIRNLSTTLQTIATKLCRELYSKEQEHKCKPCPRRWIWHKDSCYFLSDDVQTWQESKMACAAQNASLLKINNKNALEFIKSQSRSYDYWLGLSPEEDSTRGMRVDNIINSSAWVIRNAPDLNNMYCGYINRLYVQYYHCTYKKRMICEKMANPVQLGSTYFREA
- test_details: BLI

binder	binding result
Polypeptide No. 177 (scFv, V domains shown, scFv) VH: QVQLVQSGAEVKKPGASVKVSCKASGYTFTSYYMHWVRQAPGQGLEWMGWMNPNSGNTGYAQKFQGRVTMTRDTSTSTVYMELSSLRSEDTAVYYCARSTYSDSFDYWGQGTLVTVSS VL: DIQMTQSPSSLSASVGDRVTITCRASQSISNWLAWYQQKPGKAPKLLIYDASNLETGVPSRFSGSGSGTDFTLTISSLQPEDFATYYCQQSYSTPLTFGQGTKLEIKR	binds
Polypeptide No. 149 (scFv, V domains shown, scFv) VH: QVQLVQSGAEVKKPGASVKVSCKASGYTFTSYDINWVRQAPGQGLEWMGWMNPNSGNTGYAQKFQGRVTMTRDTSTSTVYMELSSLRSEDTAVYYCARELEGEWFDPWGQGTLVTVSS VL: DIQMTQSPSSLSASVGDRVTITCRASQSISSYLNWYQQKPGKAPKLLIYSASNLQSGVPSRFSGSGSGTDFTLTISSLQPEDFATYYCQQAISFPLTFGQGTKVEIKR	binds
Polypeptide No. 174 (scFv, V domains shown, scFv) VH: EVQLLESGGGLVQPGGSLRLSCAASGFIFRDHWMHWVRQAPGKGLEWVSSIDFSTGYIYYADSVKGRFTISRDNSKNTLYLQMNSLRAEDTAVYYCARDPWGDGDFDYWGRGTLVTVSS VL: DIQMTQSPSSLSASVGDRVTITCRASQSISSWLAWYQQKPGKAPKLLIYAASSLQSGVPSRFSGSGSGTDFTLTISSLQPEDFATYYCQQTYTTPYTFGQGTRLEIKR	binds
